- system_name: nucleolin RBD1,2 (NCL RBD1,2) (UniProt P19338 307-466)
- protocol_summary: fluorescence titration (Cy5 quenching); ligand C8; two-site model, KD1; aptamer pre-annealed in 20 mM potassium phosphate pH 6.9, 65 mM KCl (95 C 10 min, ice 10 min); titration temperature not given in the material
- applied_conditions: protein: recombinant; label: 5'-Cy5; parallel G4, pre-folded in K+
recorded_metric: Kd (nM)
Your answer should be a plain number; it is taken to be in nM.

Reported Kd, binder TGGTGGTGGTTGTTGGGTGGTGGTGGT (structured_DNA) [5'-Cy5-AT11-L0] : ____
0.024
